Biological target: T1, C3G-AAAP-Y554H (human, UniProt Q13905-1 4-1077, P283A | P284A | L286 | P287 | P289A | P453A | P454A | L456A | P457A | K459A | …)
T1 construct: human C3G isoform a, residues 4-1077; source: E. coli BL21 (DE3), purified (IMAC, TEV digestion, reversed IMAC, SEC); not shown: His, N-terminal, cleaved; Halo, N-terminal, cleaved
T1 sequence (looked up): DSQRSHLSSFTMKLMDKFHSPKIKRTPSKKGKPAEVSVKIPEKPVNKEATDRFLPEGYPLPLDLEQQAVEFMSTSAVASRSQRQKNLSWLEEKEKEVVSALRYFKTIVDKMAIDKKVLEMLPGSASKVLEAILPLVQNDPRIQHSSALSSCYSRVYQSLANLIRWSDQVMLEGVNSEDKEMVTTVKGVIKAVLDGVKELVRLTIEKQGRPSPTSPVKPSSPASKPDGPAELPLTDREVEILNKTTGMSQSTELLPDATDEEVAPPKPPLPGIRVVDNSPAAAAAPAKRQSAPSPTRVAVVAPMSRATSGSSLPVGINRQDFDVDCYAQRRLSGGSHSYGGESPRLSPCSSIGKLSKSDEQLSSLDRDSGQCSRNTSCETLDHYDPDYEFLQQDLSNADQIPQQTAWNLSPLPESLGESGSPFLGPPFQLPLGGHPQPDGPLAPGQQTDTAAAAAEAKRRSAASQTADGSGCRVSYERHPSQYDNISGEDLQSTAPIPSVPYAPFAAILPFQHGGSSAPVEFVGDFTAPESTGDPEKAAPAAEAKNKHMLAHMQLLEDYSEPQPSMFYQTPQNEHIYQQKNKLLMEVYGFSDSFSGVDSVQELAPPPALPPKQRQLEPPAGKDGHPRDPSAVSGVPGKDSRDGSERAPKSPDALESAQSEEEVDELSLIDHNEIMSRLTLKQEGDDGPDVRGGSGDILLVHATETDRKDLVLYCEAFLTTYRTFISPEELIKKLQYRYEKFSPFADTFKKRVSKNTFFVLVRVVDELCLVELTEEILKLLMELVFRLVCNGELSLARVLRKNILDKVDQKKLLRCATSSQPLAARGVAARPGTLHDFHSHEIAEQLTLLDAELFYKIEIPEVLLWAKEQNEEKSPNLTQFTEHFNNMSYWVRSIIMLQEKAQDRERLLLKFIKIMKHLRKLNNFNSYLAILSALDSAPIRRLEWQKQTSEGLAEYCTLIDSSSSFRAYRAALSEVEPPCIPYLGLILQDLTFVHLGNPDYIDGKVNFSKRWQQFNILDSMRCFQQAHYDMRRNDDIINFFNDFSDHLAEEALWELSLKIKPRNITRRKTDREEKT
Test: ITC; single-PRM mutant of C3G in the cell titrated with CrkL or CrkL-SH3N, 25 °C, 300 mM NaCl, pH 7.5; SEDPHAT, 1:1 heteroassociation model; N is the competent fraction of C3G
Details: both partners purified
quantityName: Kd (nM)
Enter your answer as a number in nM; do not include the unit.

For CrkL-SH3N (domain or fragment, human, UniProt P46109 125-182, looked up, human CrkL, SH3N domain, residues 125-182, in pETEV15b; source: E. coli BL21 (DE3), purified (IMAC, TEV digestion, SEC); not shown: His, N-terminal, cleaved) LEYVRTLYDFPGNDAEDLPFKKGEILVIIEKPEEQWWSARNKDGRVGMIPVPYVEKLV , what is its reported Kd?
2400
